# Tested on: 22RV1 cells
# testDetails: Inhibition of the proliferation of drug-resistant prostate cancer cell 22RV1 (CCK-8)
# Assay type: cell-based
# measurementConditions: Homo sapiens; 22RV1 cells (enzalutamide-resistant), same method
# Experimental: […] a. […] 2) The absorbance (OD value) was measured at 450 nm with a multifunctional microplate reader. 3) The data was analyzed by the Dose-response-inhibition equation in the software GraphPad Prism5, and the IC50 value was obtained. […]
pIC50: −log10 of the molar value.

compound	pIC50
Cc1ccc(-c2c(C)noc2C)cc1N(CC1CN([C@H]2C[C@H](Nc3cc4c(cc3F)C(=O)N(C3CCC(=O)NC3=O)C4=O)C2)C1)c1ccc(C2(C#N)CC2)cc1 (stereo partly shown)	< 5.70
Cc1ccc(-c2c(C)noc2C)cc1N(c1ccc(C2(C#N)CC2)cc1)C1CC2(C1)CN(c1cc3c(cc1F)C(=O)N(C1CCC(=O)NC1=O)C3=O)C2 (stereo not shown)	< 5.70
Cc1ccc(-c2c(C)noc2C)cc1N(CCCOC1CN(c2ccc3c(c2)C(=O)N(C2CCC(=O)NC2=O)C3=O)C1)c1ccc(C2(C#N)CC2)cc1 (stereo not shown)	< 5.70
Cc1ccc(-c2c(C)noc2C)cc1N(CCCOC1CN(c2ccc3c(c2)C(=O)N(C2CCC(=O)NC2=O)C3)C1)c1ccc(C2(C#N)CC2)cc1 (stereo not shown)	> 7.00
Cc1ccc(-c2c(C)noc2C)cc1N(CC1CN(C2CCN(c3ccc4c(c3)CN(C3CCC(=O)NC3=O)C4=O)CC2)C1)c1ccc(C2(C#N)CC2)cc1 (stereo not shown)	< 5.70
Cc1ccc(-c2c(C)noc2C)cc1N(CC(C)OC1CN(c2cc3c(cc2F)C(=O)N(C2CCC(=O)NC2=O)C3)C1)c1ccc(C2(C#N)CC2)cc1 (stereo not shown)	> 7.00
Cc1ccc(-c2c(C)noc2C)cc1N(CC1CCN(c2cc3c(cc2F)C(=O)N(C2CCC(=O)NC2=O)C3)CC1)c1ccc(C2(C#N)CC2)cc1 (stereo not shown)	6.30 to 7.00
